- System: velvetleaf
- Experimental Details: Test B pre/postemergence velvetleaf
- Format: in vivo, Abutilon theophrasti
- Run Parameters: Rate 250 g/ha, Postemergence; scale 0 to 10, 0 is no effect, 10 is complete control
- Method: […] At the same time, these crop and weed species were also treated with postemergence applications of test chemicals formulated in the same manner. […] Treated plants and controls were maintained in a greenhouse for twelve to sixteen days, after which all species were compared to controls and visually evaluated. […]
Known Plant response rating, Velvetleaf of a selection of compounds
Format: numeric value only, no unit, no commentary.

Return reported Plant response rating, Velvetleaf. Input compound: CC(C)N(C(=O)n1oc(=O)n(-c2nc(Cl)sc2Cl)c1=O)c1ccc(F)cc1 0

Return reported Plant response rating, Velvetleaf. Input compound: C=C(C)Cn1c(=O)on(C(=O)N(c2ccc(F)cc2)C(C)C)c1=O 5

Return reported Plant response rating, Velvetleaf. Input compound: CC(C)N(C(=O)n1oc(=O)n(C(C)c2ccccc2)c1=O)c1ccc(F)cc1 (stereo not drawn) 0

Return reported Plant response rating, Velvetleaf. Input compound: Cc1ccccc1Cn1c(=O)on(C(=O)N(c2ccc(Cl)cc2)C(C)C)c1=O 0

Return reported Plant response rating, Velvetleaf. Input compound: CC(C)N(C(=O)n1oc(=O)n([C@H](C)c2ccccc2)c1=O)c1ccc(Cl)cc1 0

Return reported Plant response rating, Velvetleaf. Input compound: CCn1c(=O)on(C(=O)N(c2ccc(F)cc2)C(C)C)c1=O 5

###

Known Crabgrass plant response rating of a selection of compounds
- Tested on: crabgrass
- Experimental Details: Test B pre/postemergence crabgrass
- Format: in vivo, Digitaria sanguinalis
- Run Parameters: Preemergence, Rate 250 g/ha; scale 0 to 10, 0 is no effect, 10 is complete control
Format: numeric value only, no unit, no commentary.

The examples below pair each entry with its known result.
CC(C)N(C(=O)n1oc(=O)n(C(C)C#N)c1=O)c1ccc(Cl)cc1 (stereo not shown)
1
CC(C)N(C(=O)n1oc(=O)n(CCl)c1=O)c1ccc(F)cc1F
0
C=CC[Si](C)(C)Cn1c(=O)on(C(=O)N(c2ccc(Cl)cc2)C(C)C)c1=O
9

Return reported Crabgrass plant response rating. Input compound: CSCCn1c(=O)on(C(=O)N(c2ccccc2)C(C)C)c1=O 4

Return reported Crabgrass plant response rating. Input compound: COC(C)n1c(=O)on(C(=O)N(c2ccc(F)cc2)C(C)C)c1=O (stereo not shown) 0

Return reported Crabgrass plant response rating. Input compound: C=C(C)Cn1c(=O)on(C(=O)N(c2ccc(F)cc2)C(C)C)c1=O 10

Return reported Crabgrass plant response rating. Input compound: CC(C)Cn1c(=O)on(C(=O)N(c2ccc(F)cc2F)C(C)C)c1=O 10

###

- Tested on: surinam grass
- Experimental Details: Test B pre/postemergence surinam grass
- Type: in vivo, Brachiaria decumbens
- Run Parameters: Preemergence, Rate 500 g/ha; scale 0 to 10, 0 is no effect, 10 is complete control
- Method: […] At the same time, these crop and weed species were also treated with postemergence applications of test chemicals formulated in the same manner. […] Treated plants and controls were maintained in a greenhouse for twelve to sixteen days, after which all species were compared to controls and visually evaluated. […]
Known B. signalgrass plant response rating of a selection of compounds
Format: numeric value only, no unit, no commentary.

The examples below pair each entry with its known result.
Cc1nc(C)c(C(C)n2c(=O)on(C(=O)N(c3ccc(F)cc3F)C(C)C)c2=O)s1 (stereo not shown)
10
CC(C)N(C(=O)n1oc(=O)n(CCC#N)c1=O)c1ccc(F)cc1F
6
COC(C)n1c(=O)on(C(=O)N(c2ccc(F)cc2)C(C)C)c1=O (stereo not shown)
0

Now turn to the next compound.
Return reported B. signalgrass plant response rating. Input compound: C=C(Cn1c(=O)on(C(=O)N(c2ccccc2)C(C)C)c1=O)c1cccnc1 0

###

- Tested on: surinam grass
- Experimental Details: Test B pre/postemergence surinam grass
- Format: in vivo, Brachiaria decumbens
- Run Parameters: Postemergence, Rate 62 g/ha; scale 0 to 10, 0 is no effect, 10 is complete control
Metric: B. signalgrass plant response rating
Format: numeric value only, no unit, no commentary.

The examples below pair each entry with its known result.
CC(C)N(C(=O)n1oc(=O)n(-c2cnn(C)c2)c1=O)c1ccc(F)cc1
0
CCn1c(=O)on(C(=O)N(c2ccc(F)cc2F)C(C)C)c1=O
8
CC(C)N(C(=O)n1oc(=O)n(-c2cnn(C)c2Cl)c1=O)c1ccccc1
0
CCn1c(=O)on(C(=O)N(c2ccc(F)cc2)C(C)C)c1=O
7

Return reported B. signalgrass plant response rating. Input compound: COc1ccc(N(C(=O)n2oc(=O)n(-c3ccccc3C)c2=O)C(C)C)cc1 0

###

- Tested on: bedstraw
- Experimental Details: Test B pre/postemergence bedstraw
- Type: in vivo, Galium aparine
- Run Parameters: Rate 250 g/ha, Postemergence; scale of 0 to 10 where 0 is no effect and 10 is complete control
Known Plant response rating, Bedstraw of a selection of compounds
Format: numeric value only, no unit, no commentary.

The examples below pair each entry with its known result.
CC(Cl)=CCn1c(=O)on(C(=O)N(c2ccc(Cl)cc2)C(C)C)c1=O
2
CC(C)N(C(=O)n1oc(=O)n(CCCC(F)(F)F)c1=O)c1ccc(Cl)cc1
9
CC(C)N(C(=O)n1oc(=O)n(C2CCCC2)c1=O)c1ccc(Cl)cc1
7

Return reported Plant response rating, Bedstraw. Input compound: Cc1ccccc1-n1c(=O)on(C(=O)N(c2cccc(F)c2)C(C)C)c1=O 4

###

Known Plant response rating, Bedstraw of a selection of molecules
- Tested on: bedstraw
- Experimental Details: Test B pre/postemergence bedstraw
- Format: in vivo, Galium aparine
- Run Parameters: Preemergence, Rate 500 g/ha; scale of 0 to 10 where 0 is no effect and 10 is complete control
Format: numeric value only, no unit, no commentary.

CC(C)N(C(=O)n1oc(=O)n(C(C)C(=O)N2CCOCC2)c1=O)c1ccc(Cl)cc1 (stereo not shown) [Compound 703]
0

Provide Plant response rating, Bedstraw, system bedstraw, entry C=C(Cn1c(=O)on(C(=O)N(c2ccccc2)C(C)C)c1=O)C(C)(C)C [Compound 648] 0

Provide Plant response rating, Bedstraw, system bedstraw, entry Cc1ccccc1-n1c(=O)on(C(=O)N(c2cccc(F)c2)C(C)C)c1=O [Compound 269] 0

Provide Plant response rating, Bedstraw, system bedstraw, entry COCCOCn1c(=O)on(C(=O)N(c2ccc(F)cc2)C(C)C)c1=O [Compound 220] 10

###

- Test system: wild oat
- Experimental Details: Test B pre/postemergence wild oat
- Type: in vivo, Avena fatua
- Run Parameters: Preemergence, Rate 500 g/ha; scale 0 to 10, 0 is no effect, 10 is complete control
Metric: Wild oats plant response rating

CC(C)N(C(=O)n1oc(=O)n(CC2=NOCCC2)c1=O)c1ccccc1
3

Return reported Wild oats plant response rating. Input molecule: CC(C)N(C(=O)n1oc(=O)n(C)c1=O)c1ccccc1 8

Return reported Wild oats plant response rating. Input molecule: C=CC[Si](C)(C)Cn1c(=O)on(C(=O)N(c2ccc(Cl)cc2)C(C)C)c1=O 7

Return reported Wild oats plant response rating. Input molecule: CC(C)N(C(=O)n1oc(=O)n(CCl)c1=O)c1ccc(Cl)cc1 3

Return reported Wild oats plant response rating. Input molecule: CC(C)N(C(=O)n1oc(=O)n(CC#N)c1=O)c1ccc(Cl)cc1 0

Return reported Wild oats plant response rating. Input molecule: CSCCn1c(=O)on(C(=O)N(c2ccccc2)C(C)C)c1=O 2

###

Known Rape plant response rating of a selection of molecules
- System: rape
- Experimental Details: Test B pre/postemergence rape
- Format: in vivo, Brassica napus
- Run Parameters: Postemergence, Rate 250 g/ha; scale 0 to 10, 0 no effect, 10 complete control
Format: numeric value only, no unit, no commentary.

The examples below pair each entry with its known result.
CCn1c(=O)on(C(=O)N(c2ccc(F)cc2F)C(C)C)c1=O
8
CCc1noc(C)c1-n1c(=O)on(C(=O)N(c2ccc(F)cc2)C(C)C)c1=O
0
CC(C)N(C(=O)n1oc(=O)n(-c2cnn(C)c2)c1=O)c1ccc(F)cc1
0
CC(C)N(C(=O)n1oc(=O)n(-c2ccccc2Cl)c1=O)c1ccc(F)cc1
0

Now turn to the next molecule.
Provide Rape plant response rating, system rape, entry COc1ccc(N(C(=O)n2oc(=O)n(-c3ccccc3C)c2=O)C(C)C)cc1 0

###

- System: rice
- Experimental Details: Test B flood test rice
- Format: in vivo, Oryza sativa
- Run Parameters: Rate 250 g/ha; Pre-emergence; flood-test species; scale 0 to 10, 0 is no effect, 10 is complete control
Metric: Rice plant response rating
Format: numeric value only, no unit, no commentary.

The examples below pair each entry with its known result.
CC(C)N(C(=O)n1oc(=O)n(C2CCC2)c1=O)c1ccc(F)cc1 [Compound 350]
0
CC(C)N(C(=O)n1oc(=O)n(C(C)CCl)c1=O)c1ccccc1 (stereo not shown) [Compound 411]
0
Cc1ccccc1-n1c(=O)on(C(=O)N(c2ccc(-c3ccccc3)cc2)C(C)C)c1=O [Compound 187]
0
CCC(=O)Cn1c(=O)on(C(=O)N(c2ccc(F)cc2)C(C)C)c1=O [Compound 252]
0
COCCOCn1c(=O)on(C(=O)N(c2ccc(F)cc2)C(C)C)c1=O [Compound 258]
0

Return reported Rice plant response rating. Input compound: CC(C)N(C(=O)n1oc(=O)n(C(C)Cl)c1=O)c1ccc(F)cc1 (stereo not shown) [Compound 393] 0

Return reported Rice plant response rating. Input compound: Cc1ccccc1-n1c(=O)on(C(=O)N(c2cccc(F)c2)C(C)C)c1=O [Compound 269] 0
